B1: 1ZHC (parent)
chain: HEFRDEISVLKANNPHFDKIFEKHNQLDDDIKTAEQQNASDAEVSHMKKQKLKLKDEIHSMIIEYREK

variants of: B1; test: folding stability dG (cDNA display proteolysis); higher = more stable; conditions: PBS, room temperature

# MUT, folding stability dG
records = [
    ("E22Y", "0.584 kcal/mol"),
    ("P15I", "0.31 kcal/mol"),
    ("K68R", "1.2 kcal/mol"),
    ("S60C", "1.18 kcal/mol"),
    ("D28M", "1.21 kcal/mol"),
    ("E43M", "1.12 kcal/mol"),
    ("I63H", "0.728 kcal/mol"),
    ("E35Y", "0.895 kcal/mol"),
    ("V9C", "1.91 kcal/mol"),
    ("K11I", "0.839 kcal/mol"),
    ("H24L", "1.68 kcal/mol"),
    ("D41V", "0.775 kcal/mol"),
    ("A39K", "1.1 kcal/mol"),
    ("K51F", "1.65 kcal/mol"),
    ("H16Q", "0.27 kcal/mol"),
    ("R66S", "-0.498 kcal/mol"),
    ("R4Q", "1.08 kcal/mol"),
    ("K23E", "1.16 kcal/mol"),
    ("S40P", "0.855 kcal/mol"),
    ("H16T", "0.264 kcal/mol"),
    ("I7A", "-0.185 kcal/mol"),
    ("E2K", "0.746 kcal/mol"),
    ("D18T", "1.35 kcal/mol"),
    ("E6N", "0.08 kcal/mol"),
    ("K53W", "0.603 kcal/mol"),
    ("D18V", "1.68 kcal/mol"),
    ("K19C", "1.32 kcal/mol"),
    ("L27I", "0.13 kcal/mol"),
    ("F3D", "0.364 kcal/mol"),
    ("N38L", "0.276 kcal/mol"),
    ("K53H", "0.266 kcal/mol"),
    ("M47A", "-0.981 kcal/mol"),
    ("H46M", "1.1 kcal/mol"),
    ("H46S", "1.28 kcal/mol"),
    ("A42T", "0.44 kcal/mol"),
    ("I63F", "0.401 kcal/mol"),
    ("E67V", "0.889 kcal/mol"),
    ("D29W", "1.26 kcal/mol"),
    ("K23N", "0.111 kcal/mol"),
    ("P15L", "0.336 kcal/mol"),
    ("K19F", "1.37 kcal/mol"),
    ("E57M", "1.16 kcal/mol"),
    ("K53V", "0.811 kcal/mol"),
    ("N38P", "-0.007 kcal/mol"),
    ("F3N", "0.409 kcal/mol"),
    ("N14I", "-0.077 kcal/mol"),
]
